test system: COLO 205; assay: NCI tumour cell line growth inhibition, 48 h
Activity calls are given as the source filed them. Rule as the data show it: active = GI50 up to about 1.1 µM and inactive = higher. Where a SMILES comes first, the peptide text is derived from it. [ ]: non-standard residue; d: D form. The star is where a group is joined. ξ: configuration not given here. NMeF = CN[CH](Cc1ccccc1)C(=O)O; ξNMe2Val = CC(C)C(C(=O)*)N(C)C; NMeV = CN[CH](C(=O)O)C(C)C; OtBu = CC(C)(C)O*
ATTRIBUTE MEASURED: GI50

| MOLECULE | VALUE MEASURED |
| --- | --- |
| C=[N+](CNC(=O)CNC(=O)C(Cc1ccc([N+](=O)[O-])cc1)NC(=O)OC(C)(C)C)C(=O)CNC(=O)C(Cc1ccc([N+](=O)[O-])cc1)NC(=O)OC(C)(C)C (stereo not given) | 58.2 µM (inactive) |
| CC1CCC(=O)C(C(=O)CC2CC(=O)N(C)C(=O)C2)C1 (stereo not given) | > 100 µM (inactive) |
| CCNc1ccc2c(c1)C(=O)N(OS(C)(=O)=O)C2=O | 42.7 µM (inactive) |
| CC(C)C(C(=O)N(C)C(Cc1ccccc1)C(=O)N(C)C(C(=O)N(C)C(C(=O)N1CCCC1C(=O)OC(C)(C)C)C(C)C)C(C)C)N(C)C (stereo not given) (ξNMe2Val-[NMeF][NMeV][NMeV]P-OtBu; configuration not given here) | 35.2 µM (inactive) |

We next turn to a different molecule, shown below.
For this molecule ( COc1cc2c(c(O)c1OC)C(O)C1CCC(=O)N1C2c1ccc2c(c1)OCO2 (stereo not given) ), measured GI50 is > 100 µM (inactive)

----------
tested on: HT-29; test: NCI tumour cell line growth inhibition, 48 h
The source made the active and inactive calls. No stated cut-off is given here; in the data, active = GI50 up to about 1.1 µM and inactive = higher.
ATTRIBUTE MEASURED: GI50

| COMPOUND | GI50 |
| --- | --- |
| c1ccc(C2=NOC3C4CCC(C4)C23)cc1 (centres undefined) | > 100 µM (inactive) |
| CCOC(=O)CCC(NC(=O)c1ccc(CNc2nc3ccccc3nc2C(=O)OCC)cc1)C(=O)OCC (centres undefined) | > 100 µM (inactive) |
| O=C(O)C1C2c3ccccc3C(c3ccccc32)C1C(=O)NCC1CC1 (centres undefined) | 71.6 µM (inactive) |
| Cc1ncc([N+](=O)[O-])n1CCNCCCCn1ccnc1[N+](=O)[O-] | > 100 µM (inactive) |
| O=c1c2c(nc3[nH]ccn13)CCCC2 | > 10 µM (inactive) |
| O=C1OCCC12CN(Cc1ccccc1)N=N2 (centres undefined) | > 100 µM (inactive) |

Item: `O=C1/C(=c2\s/c(=C\c3ccccc3)c(=O)n2-c2ccccc2)SC(=S)N1c1ccccc1` | GI50: > 100 µM (inactive)

So, `COc1ccc(C2=NN=C3C(c4ccccc4)=Nc4ccccc4N3C2)cc1` ? Its GI50 was 20.1 µM (inactive)

// field: GI50; key: `CC(C)(C)NC(NC(C)(C)C)=C(/C=C(/Cl)[N+](=O)[O-])[N+](=O)[O-]` ; value = 41.8 µM (inactive)

Entry `O=C(CCc1cccc(O)c1)NCCc1ccc(O)cc1` — recorded GI50 = > 100 µM (inactive)

# GI50 of CCS[C@H]1NC(=O)C1[C@H](C)O[Si](C)(C)C(C)(C)C (some centres undefined) = > 100 µM (inactive)
